Biological target: ER (SK-BR-3 cells transfected with ERE plasmid and ER) (Homo sapiens)
Sequence (P03372 whole entry): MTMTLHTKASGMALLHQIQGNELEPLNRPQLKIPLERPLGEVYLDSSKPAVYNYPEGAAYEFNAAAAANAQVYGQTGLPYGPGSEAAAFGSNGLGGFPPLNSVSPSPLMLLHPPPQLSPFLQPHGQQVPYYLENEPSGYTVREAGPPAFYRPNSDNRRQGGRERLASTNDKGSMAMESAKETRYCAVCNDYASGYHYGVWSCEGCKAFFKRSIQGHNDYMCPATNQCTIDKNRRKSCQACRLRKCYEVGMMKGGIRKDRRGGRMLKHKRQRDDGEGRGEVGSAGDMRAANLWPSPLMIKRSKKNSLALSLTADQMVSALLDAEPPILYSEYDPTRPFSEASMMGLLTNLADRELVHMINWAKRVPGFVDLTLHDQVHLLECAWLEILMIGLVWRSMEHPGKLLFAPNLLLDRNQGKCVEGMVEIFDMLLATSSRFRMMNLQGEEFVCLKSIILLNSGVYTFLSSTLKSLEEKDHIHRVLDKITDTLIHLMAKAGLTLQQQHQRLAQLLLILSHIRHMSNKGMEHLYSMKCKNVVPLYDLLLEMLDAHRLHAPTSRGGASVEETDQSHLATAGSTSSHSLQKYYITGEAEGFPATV
Experiment: ER antagonism assay
Conditions: 100 nM β-Estradiol, 24 h, Dual-glo luciferase
MEASUREMENT NAME: IC50

Name the reported IC50 value associated with the molecule `CCc1cc2ncc(CN3CCN(CCCCCCOc4cc(F)c([C@@H]5c6[nH]c7ccccc7c6C[C@@H](C)N5CC(C)(C)F)c(F)c4)CC3)cc2[nH]c1=O`
≤ 100 nM

Requested read-out: IC50. Entry: `CCc1cc2ncc(CN3CCN(C(=O)CCCCCOc4cc(F)c([C@@H]5c6[nH]c7ccccc7c6C[C@@H](C)N5CC(C)(C)F)c(F)c4)CC3)cc2[nH]c1=O`
≤ 100 nM

Please give the measured IC50 for this molecule: `CCc1cc2ncc(CN3CCN(CCOc4cc(F)c([C@@H]5c6[nH]c7ccccc7c6C[C@@H](C)N5CC(C)(C)F)c(F)c4)CC3)cc2[nH]c1=O`
≤ 100 nM

Need IC50, item `CCc1cc2ncc(CN3CCN(C(=O)[C@H]4CC[C@H](COc5cc(F)c([C@@H]6c7[nH]c8ccccc8c7C[C@@H](C)N6CC(C)(C)F)c(F)c5)CC4)CC3)cc2[nH]c1=O`
≤ 100 nM

Entry `CCc1cc2ncc(CN3CCN(C(=O)COc4cc(F)c([C@@H]5c6[nH]c7ccccc7c6C[C@@H](C)N5CC(C)(C)F)c(F)c4)CC3)cc2[nH]c1=O` : reported IC50 = ?
≤ 100 nM

IC50 for `CCc1cc2ncc(CN3CCC(N(C)C(=O)COc4cc(F)c([C@@H]5c6[nH]c7ccccc7c6C[C@@H](C)N5CC(C)(C)F)c(F)c4)CC3)cc2[nH]c1=O` ?
≤ 100 nM

====

Target: AR (cytosol from LnCaP cells) (Homo sapiens, UniProt P10275, T878A)
Construct: endogenous in cells
Sequence (P10275 whole entry T878A): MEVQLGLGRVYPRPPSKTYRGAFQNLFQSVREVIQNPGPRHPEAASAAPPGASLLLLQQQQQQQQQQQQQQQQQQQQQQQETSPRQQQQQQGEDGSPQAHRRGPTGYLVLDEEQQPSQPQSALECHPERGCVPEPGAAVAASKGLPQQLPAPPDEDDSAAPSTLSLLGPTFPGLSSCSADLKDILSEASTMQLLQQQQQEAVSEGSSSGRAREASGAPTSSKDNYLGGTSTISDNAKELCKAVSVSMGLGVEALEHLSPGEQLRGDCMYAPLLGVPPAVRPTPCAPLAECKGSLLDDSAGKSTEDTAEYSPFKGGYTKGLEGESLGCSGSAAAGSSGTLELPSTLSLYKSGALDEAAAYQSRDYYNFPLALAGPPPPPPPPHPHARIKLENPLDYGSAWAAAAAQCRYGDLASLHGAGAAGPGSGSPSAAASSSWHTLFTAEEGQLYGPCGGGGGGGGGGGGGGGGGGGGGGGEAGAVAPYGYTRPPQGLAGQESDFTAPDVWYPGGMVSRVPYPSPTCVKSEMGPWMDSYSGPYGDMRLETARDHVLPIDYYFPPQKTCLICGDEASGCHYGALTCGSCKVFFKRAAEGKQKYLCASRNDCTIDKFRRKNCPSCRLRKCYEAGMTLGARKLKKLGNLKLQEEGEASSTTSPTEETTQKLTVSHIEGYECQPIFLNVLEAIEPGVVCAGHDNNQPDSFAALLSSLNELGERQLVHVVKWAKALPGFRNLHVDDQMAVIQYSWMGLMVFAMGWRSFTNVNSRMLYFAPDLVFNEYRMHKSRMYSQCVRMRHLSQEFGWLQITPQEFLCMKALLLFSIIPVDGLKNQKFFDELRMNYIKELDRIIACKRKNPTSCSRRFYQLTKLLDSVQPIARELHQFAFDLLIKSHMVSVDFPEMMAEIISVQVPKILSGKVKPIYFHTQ
Experiment: AR binding assay
Conditions: 3H-R1881 1 nM, 4° C. 24 hrs
Record form. Attribute: IC50. Fill in for each entry.

Notebook entry, AR (cytosol from LnCaP cells) (Homo sapiens, UniProt P10275, T878A) assay: IC50 of CCc1cc2ncc(CN3CCN(c4ccc(C(=O)NCC5CCN(c6ccc(C(=O)N[C@H]7CC[C@H](Oc8ccc(C#N)c(Cl)c8)CC7)nn6)CC5)nc4)CC3)cc2[nH]c1=O [Compound 1] = ?
100 to 1000 nM

Recorded IC50 for CCc1cc2ncc(CN3CCN(c4ccc(C(=O)N5CCN(CC6CCN(c7ccc(C(=O)N[C@H]8CC[C@H](Oc9ccc(C#N)c(Cl)c9)CC8)nn7)CC6)CC5)nc4)CC3)cc2[nH]c1=O [Compound 59] with AR (cytosol from LnCaP cells) (Homo sapiens, UniProt P10275, T878A), please?
< 100 nM

So what IC50 did CCc1cc2ncc(CN3CCN(CC4CCN(c5ccc(C(=O)N[C@H]6CC[C@H](Oc7ccc(C#N)c(Cl)c7)CC6)nn5)CC4)CC3)cc2[nH]c1=O [Compound 4] get with AR (cytosol from LnCaP cells) (Homo sapiens, UniProt P10275, T878A)?
< 100 nM

Request - read-out IC50 | tested on AR (cytosol from LnCaP cells) (Homo sapiens, UniProt P10275, T878A) | compound CCc1cc2ncc(CN3CCN(c4ccc(-c5nnc([C@H]6[C@H](C)OC(=O)N6c6ccc(C#N)c(Cl)c6)o5)cc4)CC3)cc2[nH]c1=O [Compound 65]
> 10000 nM

Identify the measured IC50 of CCc1cc2ncc(CN3CCN(c4ccc(-c5nnc([C@H](Nc6ccc(C#N)c(Cl)c6C)[C@H](C)O)o5)cc4)CC3)cc2[nH]c1=O [Compound 64] for AR (cytosol from LnCaP cells) (Homo sapiens, UniProt P10275, T878A).
1000 to 10000 nM

Form entry - test system: AR (cytosol from LnCaP cells) (Homo sapiens, UniProt P10275, T878A); read-out: IC50; compound: CCc1cc2ncc(CN3CCN(Cc4ccc(-c5nnc([C@H](Nc6ccc(C#N)c(Cl)c6)[C@H](C)O)o5)cc4)CC3)cc2[nH]c1=O [Compound 68]
> 10000 nM

# returns recorded IC50 (system: AR (cytosol from LnCaP cells) (Homo sapiens, UniProt P10275, T878A)) for CCc1cc2ncc(CN3CCN(CC4CCN(c5ccc(C(=O)N[C@H]6CC[C@H](N(C)c7ccc(C#N)c(Cl)c7)CC6)nn5)CC4)CC3)cc2[nH]c1=O [Compound 67]
< 100 nM

Please provide the recorded IC50 for CCc1cc2ncc(CN3CCN(CC4CCN(c5ccc(C(=O)N[C@H]6C(C)(C)[C@H](Oc7ccc(C#N)c(Cl)c7)C6(C)C)nn5)CC4)CC3)cc2[nH]c1=O [Compound 13] , tested on AR (cytosol from LnCaP cells) (Homo sapiens, UniProt P10275, T878A).
< 100 nM

Form field - read-out: IC50; system: AR (cytosol from LnCaP cells) (Homo sapiens, UniProt P10275, T878A); submitted item: CCc1cc2ncc(CN3CCN(Cc4ccc(-c5nnc([C@H](Nc6ccc(C#N)c(Cl)c6C)[C@H](C)O)o5)cc4)CC3)cc2[nH]c1=O [Compound 69]
> 10000 nM

Request - read-out IC50 | tested on AR (cytosol from LnCaP cells) (Homo sapiens, UniProt P10275, T878A) | compound CCc1cc2ncc(CN3CCN(CC4CCN(c5ccc(C(=O)N[C@H]6CC[C@H](Oc7ccc(C#N)c(Cl)c7C)CC6)nn5)CC4)CC3)cc2[nH]c1=O [Compound 66]
< 100 nM

Look up IC50 with AR (cytosol from LnCaP cells) (Homo sapiens, UniProt P10275, T878A) for this compound: CCc1cc2ncc(CN3CCN(c4ccc(-c5nnc([C@H](Nc6ccc(C#N)c(Cl)c6)[C@H](C)O)o5)cc4)CC3)cc2[nH]c1=O [Compound 63]
100 to 1000 nM

# get_value(readout= IC50, system= AR (cytosol from LnCaP cells) (Homo sapiens, UniProt P10275, T878A)) for CCc1cc2ncc(CN3CCN(c4ccc(C(=O)N5CCN(C(=O)C6CCN(c7ccc(C(=O)N[C@H]8CC[C@H](Oc9ccc(C#N)c(Cl)c9)CC8)nn7)CC6)CC5)nc4)CC3)cc2[nH]c1=O [Compound 60]
< 100 nM

// provenance: patent US12006314B2
